Biological target: DGI-2 (Homo sapiens)
Construct: encompassed the entire DGI-2 open reading frame (ORF); His-tag of vector pIVEX2.3-MCS (inferred from the vector and from the reverse primer lacking a stop codon); made in house; host or cells: cell-free in vitro translation (Rapid Translation System RTS, Roche; E. coli lysate)
Sequence (Q15004 1-111): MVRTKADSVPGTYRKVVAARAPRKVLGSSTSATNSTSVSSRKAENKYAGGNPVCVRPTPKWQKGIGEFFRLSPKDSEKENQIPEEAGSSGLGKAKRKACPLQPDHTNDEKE
Assay: ELISA analysis of phage on DGI-2 polypeptide (specific binding)
Details: ratio of specific binding to non-specific binding
Label criterion met for high-side DGI-2/LDH (OD) (at or above 2) and criterion not met for low-side DGI-2/LDH (OD) (below it).

Query: Reported DGI-2/LDH (OD) reaches at least 2 for LQIVRPAGMTKMPGQVGYYIG (LQIVRPAGWKMPGQVGYYIG; DGI-2-20R-3-A9; listed as Escherichia coli) ?
Response: criterion met

Query: Reported DGI-2/LDH (OD) reaches at least 2 for SRGMAEAQFSAWPVLAVFPL (DGI-2-20F-PP-H8; listed as Escherichia coli) ?
Response: criterion not met

Query: Reported DGI-2/LDH (OD) reaches at least 2 for SVSGGGVFGTGGRVRHQVSG (DGI-2-20F-PP-C5; listed as Escherichia coli) ?
Response: criterion met

Query: Reported DGI-2/LDH (OD) reaches at least 2 for TANGHRYGGCGLWCKWMSGM (DGI-2-20R-4-E2; listed as Escherichia coli) ?
Response: criterion met

Query: Reported DGI-2/LDH (OD) reaches at least 2 for DDIVCLFQFCTMFCWLDMGW (DDIVCLFQFCIMFCWLDMGW; DGI-2-20F-PP-H3; listed as Escherichia coli) ?
Response: criterion not met

Query: Reported DGI-2/LDH (OD) reaches at least 2 for GEVDCVYALTHRFLSPQVQYHIHRPV (GEVDCVYALTHRFLSPQVQYHHRPV; DGI-2-20C-3-A12; listed as Escherichia coli) ?
Response: criterion not met

Query: Reported DGI-2/LDH (OD) reaches at least 2 for GNKCFPPHDLFWDPCDQLQS (DGI-2-20R-4-F6; listed as Escherichia coli) ?
Response: criterion met

Query: Reported DGI-2/LDH (OD) reaches at least 2 for DYKGRTMTSPIMSALPVYDRLHGIGSRGQNMD (DYKGRTMTSPIMSALPVYDRLHGAIGSRGQNMD; DGI-2-20C-3-B3; listed as Escherichia coli) ?
Response: criterion not met

Query: Reported DGI-2/LDH (OD) reaches at least 2 for RCFQDGRMLALSPTYLIRRSVSPLVVGPLPTP (DGI-2-40F-3-A24; listed as Escherichia coli) ?
Response: criterion not met

Query: Reported DGI-2/LDH (OD) reaches at least 2 for GLEPVPFQTDKRIAMGWTREWLVNGYGAAHRRDARMQSGH (DGI-2-40F-3-D6; listed as Escherichia coli) ?
Response: criterion met

Query: Reported DGI-2/LDH (OD) reaches at least 2 for SIILAGCVWVMPCGQNLGGV (DGI-2-20F-PP-C4; listed as Escherichia coli) ?
Response: criterion met

Query: Reported DGI-2/LDH (OD) reaches at least 2 for RFWSVSYQGGRVMCREWGYCLPI (DGI-2-40F-3-C92; listed as Escherichia coli) ?
Response: criterion met

Query: Reported DGI-2/LDH (OD) reaches at least 2 for ACSVGTALVFPQRWWYLGRS (DGI-2-20R-3-D6; listed as Escherichia coli) [DGL-2-20R-3-D6] ?
Response: criterion met

Query: Reported DGI-2/LDH (OD) reaches at least 2 for MSSTAWTDRILQRGIGLGPV (DGI-2-20R-4-F1212; listed as Escherichia coli) ?
Response: criterion met
